Cited source for all entries: patent US4304778A

System: Colletotrichum lagenarium
EXPERIMENTAL_DETAILS: Effect on anthracnose in cucumbers
Type: in vivo
TEST_CONDITIONS: cucumber anthracnose; 500 ppm; seven days; cotyledon and first leaf

# MOLECULE, ASSAY_SYSTEM, Diseased area (%)
rows = [
    ("Cc1cc(Cl)ccc1OCCN(C)c1ncnc2ccccc12 [compound 22]", "Colletotrichum lagenarium", 0),
    ("C=CCN(CCOc1ccc(C)cc1C)c1ncnc2ccccc12 [compound 26]", "Colletotrichum lagenarium", 0),
    ("CCN(CCOc1ccccc1C)c1ncnc2ccccc12 [Compound No. 2]", "Colletotrichum lagenarium", 0),
    ("Cc1ccc(C(C)C)cc1OCCN(C)c1ncnc2ccccc12 [Compound No. 21]", "Colletotrichum lagenarium", 0),
    ("C=CCN(CCOc1ccccc1C(C)C)c1ncnc2ccccc12 [compound 25]", "Colletotrichum lagenarium", 8),
    ("Cc1ccccc1OCCN(C)c1ncnc2ccccc12 [Compound No. 1]", "Colletotrichum lagenarium", 0),
    ("C=C(C)CN(CCOc1ccccc1C(C)C)c1ncnc2ccccc12 [compound 52]", "Colletotrichum lagenarium", 8),
    ("CCN(CCOc1ccc(C)cc1C)c1ncnc2ccccc12 [compound 32]", "Colletotrichum lagenarium", 8),
    ("CC=CCN(CCOc1ccccc1C(C)C)c1ncnc2ccccc12 [compound 51]", "Colletotrichum lagenarium", 0),
]

---

System: Piricularia oryzae
Format: in vivo
TEST_CONDITIONS: rice blast; 500 ppm spray; mean, upper two leaves
The entries below come with measured No. of disease spots per leaf values attached.

# COMPOUND, No. of disease spots per leaf
data = [
    ("CN(CCOCc1ccc(Cl)cc1)c1ncnc2ccccc12 [compound 14]", "1.5 spots per leaf"),
    ("CCCCCCN(CCOc1ccccc1C(C)C)c1ncnc2ccccc12 [compound 44]", "3.1 spots per leaf"),
    ("Cc1ccc(OCCN(C)c2ncnc3ccccc23)c(C)c1 [compound 17]", "2.4 spots per leaf"),
    ("CC(C)c1ccccc1OCCN(C)c1ncnc2ccccc12 [compound 15]", "3.0 spots per leaf"),
    ("CCCCCCCCc1ccc(C)c(OCCN(C)c2ncnc3ccccc23)c1 [compound 56]", "3.2 spots per leaf"),
    ("Cc1ccc(OCCN(C)c2ncnc3ccccc23)cc1 [compound 18]", "2.6 spots per leaf"),
    ("Cc1ccc(COCCN(C)c2ncnc3ccccc23)cc1 [compound 13]", "2.9 spots per leaf"),
]

---

Tested on: cockroach larvae
TEST_CONDITIONS: 24 hours; 25° C.
METRIC: Mortality rate (%), 0.5mg test cpd/10 cockroaches/bottle

# COMPOUND, READING
data = [
    ("C=CCN(CCOc1ccc(Cl)cc1C)c1ncnc2ccccc12 [compound 43]", 90),
    ("Cc1ccc(OCCN(C)c2ncnc3ccccc23)c(C)c1 [compound 17]", 90),
    ("CCN(CCOc1ccc(Cl)cc1C)c1ncnc2ccccc12 [compound 38]", 90),
    ("CN(CCOc1ccccc1)c1ncnc2ccccc12 [Compound No. 4]", 85),
    ("CCN(CCOc1ccccc1C)c1ncnc2ccccc12 [Compound No. 2]", 90),
    ("CCN(CCOc1ccc(C)cc1C)c1ncnc2ccccc12 [compound 32]", 85),
    ("Cc1ccc(COCCN(C)c2ncnc3ccccc23)cc1 [compound 13]", 80),
    ("CCN(CCOc1cc(C(C)C)ccc1C)c1ncnc2ccccc12 [compound 47]", 85),
    ("CCCN(CCOc1ccc(Cl)cc1C)c1ncnc2ccccc12 [compound 39]", 85),
    ("CN(CCOc1ccc(Cl)cc1)c1ncnc2ccccc12 [compound 19]", 85),
    ("C=CCN(CCOc1ccccc1C(C)C)c1ncnc2ccccc12 [compound 25]", 85),
    ("CN(CCOc1cccc(Cl)c1)c1ncnc2ccccc12 [compound 23]", 85),
    ("Cc1ccc(OCCN(C)c2ncnc3ccccc23)cc1 [compound 18]", 90),
    ("CCC(C)c1ccccc1OCCN(C)c1ncnc2ccccc12 (centres unmarked) [compound 12]", 90),
    ("C=CCN(CCOc1ccc(C)cc1C)c1ncnc2ccccc12 [compound 26]", 90),
    ("CCCCCCc1ccc(OCCN(C)c2ncnc3ccccc23)c(C)c1 [compound 57]", 90),
    ("Cc1ccc(C(C)C)cc1OCCN(C)c1ncnc2ccccc12 [Compound No. 21]", 90),
    ("Cc1cccc(OCCN(C)c2ncnc3ccccc23)c1 [compound 20]", 90),
    ("CCCCN(CCOc1ccc(Cl)cc1C)c1ncnc2ccccc12 [compound 41]", 85),
    ("Cc1cc(Cl)ccc1OCCN(C)c1ncnc2ccccc12 [compound 22]", 80),
    ("CCCCCCCCc1ccc(OCCN(C)c2ncnc3ccccc23)c(C)c1 [compound 58]", 90),
    ("CC(C)c1ccccc1OCCN(C)c1ncnc2ccccc12 [compound 15]", 80),
    ("CCCN(CCOc1ccc(C)cc1C)c1ncnc2ccccc12 [compound 33]", 90),
]
